biological target: GCGR (UniProt P47871 26-477, limits assumed); assay: cell-based or functional assay
Sequence (P47871 26-477 limits assumed): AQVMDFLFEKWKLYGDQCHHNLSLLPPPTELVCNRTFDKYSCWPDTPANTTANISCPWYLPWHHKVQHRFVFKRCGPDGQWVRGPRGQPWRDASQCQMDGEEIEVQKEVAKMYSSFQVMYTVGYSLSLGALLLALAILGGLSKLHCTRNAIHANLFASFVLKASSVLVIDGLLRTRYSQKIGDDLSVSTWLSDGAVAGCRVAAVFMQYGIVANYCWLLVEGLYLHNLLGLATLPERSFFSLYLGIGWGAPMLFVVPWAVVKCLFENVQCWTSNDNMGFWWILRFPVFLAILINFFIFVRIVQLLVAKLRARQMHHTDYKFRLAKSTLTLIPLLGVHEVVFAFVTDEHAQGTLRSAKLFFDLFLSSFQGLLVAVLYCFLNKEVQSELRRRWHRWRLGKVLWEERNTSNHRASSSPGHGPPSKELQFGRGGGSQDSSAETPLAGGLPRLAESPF
endpointLabel: EC50 value, cellular cAMP assay (Hit Hunter cAMP) (pM)
Give your result in pM as a bare value.

These recorded examples may help you get a feel for the data.
YXQGTFTSDYSIXLDKXAQXAFIEYLLEGGPSSGAPPPS (Aib at 2; αMethyl-Leu at 13; Lys 17 ε-amino acylated with Moiety D; Aib at 20; C-terminal amide) [Compound 20]    140
YXQGTFTSDYSIXLDKXAQXAFIEYLLEGGPSSGAPPPS (Aib at 2; norvaline at 13; Lys 17 ε-amino acylated with Moiety B; Aib at 20; C-terminal amide) [Compound 17]    13.3

Please look at the following binder next.
Would you mind telling me what EC50 value, cellular cAMP assay (Hit Hunter cAMP) value was observed for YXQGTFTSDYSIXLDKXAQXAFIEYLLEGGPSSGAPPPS (Aib at 2; αMethyl-Leu at 13; Lys 17 ε-amino acylated with Moiety C; Aib at 20; C-terminal amide) [Compound 19] ? 109

The values you see were collected from patent EP4803094A2.
